Values from ChEMBL document CHEMBL1961873

target: Protein kinase C iota type (Homo sapiens); details: at 0.1 µM
Description: GSK_PKIS: PKC-iota mean inhibition at 0.1 uM [Nanosyn]
parameter: inhibition (%)
Answers are plain numbers, in %.

Consider the following illustrative entries.
| compound | inhibition (%) |
| --- | --- |
| CC1=C(C(=O)Nc2cc(Cl)c3[nH]ncc3c2)C(c2ccc(C(F)(F)F)cc2)CC(=O)N1 (centres undefined) | 1.43 |
| Nc1ncc(-c2cccc(S(N)(=O)=O)c2)c2scc(-c3ccc(F)c(Cl)c3)c12 | 1.76 |

Report inhibition for every entry below.
1. Cc1cccc2c1NC(=O)/C2=N\Nc1ccc(S(N)(=O)=O)cc1
2. CCn1c(-c2nonc2N)nc2ccccc21
3. CC(C)(CO)CNC(=O)c1ccc2c(c1)/C(=N/Nc1ccc(S(N)(=O)=O)cc1)C(=O)N2
4. COc1cc(Nc2nccc(Nc3ccc4c(C)n[nH]c4c3)n2)cc(OC)c1OC
5. CNC(=O)c1cc(-c2ccc(F)cc2)cc(-c2ccc(S(=O)(=O)N3CCCC3)cc2)c1N

(A)
1: 1.18; 2: 1.65; 3: -0.53; 4: 1.08; 5: 1.11

Go through the list and state inhibition for each entry.
1. CN1CCC(n2cnc(-c3ccc(F)cc3)c2-c2ccnc(Nc3ccccc3)n2)CC1
2. COc1ccc2c(-c3ccnc(Nc4cccc(OC(F)(F)F)c4)n3)cnn2n1

(A)
[1.53, 2.36]

---

molecular target: Tyrosine-protein kinase Blk (Homo sapiens); conditions: at 0.1 µM;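 also: reported value is the mean percent inhibition of BLK kinase activity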
parameter: inhibition (%)
Give bare numbers, in %.

Study these solved cases before continuing.
| chem.smiles | inhibition [%] |
| --- | --- |
| CNC(=O)c1cccc(C#Cc2cncnc2Nc2ccc(OCc3cccc(F)c3)c(Cl)c2)c1 | 1.53 |
| c1ccc(-c2nc3n(c2-c2ccc4c(c2)OCO4)CCC3)nc1 | 0.54 |
| COc1cc2ncn(-c3cc(OCc4ccccc4C(F)(F)F)c(C(=O)N(C)C)s3)c2cc1OC | 0.87 |
| NS(=O)(=O)c1ccc(N/N=C2\C(=O)Nc3ccc4ncccc4c32)cc1 | 8.45 |
| COc1ccc2[nH]c3c4[nH]c5ccc(OC)cc5c4c4c(c3c2c1)C(=O)NC4=O | 6.14 |
| CCNC(=O)O[C@H]1CN[C@H](C#Cc2cc3ncnc(Nc4ccc(OCc5cccc(F)c5)c(Cl)c4)c3s2)C1 | 2.3 |
| COc1ccc(-c2cc3c(N)ncnc3o2)cc1 | 0.55 |
| N#Cc1c(NC(=O)c2ccc(F)cc2)sc2c1CCCC2 | 0.68 |
| CN(C)CCOc1ccc(-c2nc(-c3ccncc3)c(-c3ccc4c(c3)CC/C4=N\O)[nH]2)cc1 | 2.07 |
| FC(F)(F)c1cccc(-c2nn3ncccc3c2-c2ccnc(Nc3ccc4c(c3)OCCO4)n2)c1 | 4.81 |

Each of the following entries comes with a recorded value; kindly state inhibition for each.
1. N#Cc1c(NC(=O)CN2CCOCC2)sc2c1CCCC2
2. COc1ccc(-c2nn3ncccc3c2-c2ccnc(Nc3ccc4c(c3)OCCO4)n2)cc1
3. NS(=O)(=O)c1ccc(Nc2ncc(-c3ccccc3)o2)cc1
4. COc1cc(N2CCN(C(C)C)CC2)ccc1Nc1nc(Nc2ccc(F)cc2C(N)=O)c2cc[nH]c2n1

(A)
1. 3.64
2. 5.51
3. 2.41
4. 1.9

For the molecule CNC(=O)c1cncc(/C=C/c2ccccc2Cl)c1 , the measured inhibition on Tyrosine-protein kinase Blk (Homo sapiens) was 3.84
